tested on: SK-MEL-2 melanoma; assay: NCI tumour cell line growth inhibition, 48 h

[
  {
    "Compound": "Cc1ccc(NC(=O)CC(=O)N2N=C(N(C)c3ccccc3)CC2c2ccccc2)cc1 (stereo not drawn)",
    "TGI": "> 100 µM"
  },
  {
    "Compound": "CCN=c1nc2sc3c(c2c(NC(=S)NCC)s1)CCN(N1CCc2c(sc4nc(=NCC)sc(NC(=S)NCC)c24)C1)C3",
    "TGI": "> 100 µM"
  },
  {
    "Compound": "NC(Cc1ccccc1)P(=O)(O)O (stereo not drawn)",
    "TGI": "> 100 µM"
  }
]

----------
In this section we review reported TGI values for a set of molecules.
tested on: SF-539 CNS; assay: NCI tumour cell line growth inhibition, 48 h

[
  {
    "Compound Structure String": "CCOc1ccc(NC(=O)/C(=C\\c2ccc(C)cc2)C(C)=O)cc1",
    "TGI": "> 100 µM"
  },
  {
    "Compound Structure String": "Cc1[nH]c(=O)nc2nc3ccc(Cl)cc3c(N(CCO)CCO)c12",
    "TGI": "> 100 µM"
  },
  {
    "Compound Structure String": "COc1cc(C(=O)N(C)N(C)C)cc(OC)c1OC",
    "TGI": "> 10 µM"
  }
]

----------
system: DU-145 prostate; experiment: NCI tumour cell line growth inhibition, 48 h
In this section we review reported TGI values for a set of molecules.

[
  {
    "Molecule": "O=C(OCC1OC(n2cc(C(F)(F)F)c(=O)[nH]c2=O)CC1OC(=O)c1ccc([N+](=O)[O-])cc1)c1ccc([N+](=O)[O-])cc1 (configuration not stated)",
    "TGI": "> 100 µM"
  },
  {
    "Molecule": "Cc1cc(=O)[nH]c(S(=O)(=O)NC(=S)Nc2ccc(Cl)cc2)n1",
    "TGI": "> 100 µM"
  },
  {
    "Molecule": "Nc1c(C(=O)c2cccc(OC[C@@H](O)CO)c2)cnn1-c1ccc(F)cc1",
    "TGI": "> 25 µM"
  },
  {
    "Molecule": "COc1cc(C(=O)N(C)N(C)C)cc(OC)c1OC",
    "TGI": "> 10 µM"
  },
  {
    "Molecule": "S=C(S)N1CCCCC1",
    "TGI": "> 406 µM"
  },
  {
    "Molecule": "CC(C)Oc1ccc(-c2nn([C@@H](C)c3oc4ccc(F)cc4c(=O)c3-c3cccc(F)c3)c3ncnc(N)c23)cc1F",
    "TGI": "> 100 µM"
  },
  {
    "Molecule": "Cc1ccc(C2=NN(c3ccc(S(C)(=O)=O)cc3)C(=O)CC2)cc1",
    "TGI": "> 100 µM"
  },
  {
    "Molecule": "N#CC(C#N)=Cc1c[nH]c(=O)[nH]c1=O",
    "TGI": "> 100 µM"
  },
  {
    "Molecule": "O=NN1CCNC1Cc1ccccc1 (configuration not stated)",
    "TGI": "> 100 µM"
  },
  {
    "Molecule": "CC1OC(Oc2c(-c3cc(O)c(O)c(O)c3)oc3cc(O)cc(O)c3c2=O)C(O)C(O)C1O (configuration not stated)",
    "TGI": "> 100 µM"
  },
  {
    "Molecule": "N#CC1CCCC2SC(F)(F)C(F)(F)C12 (configuration not stated)",
    "TGI": "> 100 µM"
  },
  {
    "Molecule": "CCOC(=O)[C@@H]1[C@@H]2NC(=O)N[C@@]1(C)Oc1ccccc12",
    "TGI": "> 100 µM"
  }
]

----------
In this section we review reported TGI values for a set of compounds.
tested on: U251 CNS; assay: NCI tumour cell line growth inhibition, 48 h
Assay Metric: TGI

[
  {
    "Compound Structure String": "CCOC(=O)[C@H]1Nc2ccc(Cl)cc2[C@H]2CCC[C@@H]12",
    "Data Value": "> 100 µM"
  },
  {
    "Compound Structure String": "O=C1C(C=NC(=S)c2ccccc2)=C(O)c2ccccc21",
    "Data Value": "> 100 µM"
  },
  {
    "Compound Structure String": "CSc1cc(-c2cc3ccccc3o2)oc(=O)c1C#N",
    "Data Value": "> 100 µM"
  },
  {
    "Compound Structure String": "Cn1cc(-c2csc(-c3c[nH]c4ccccc34)n2)c2cnccc21",
    "Data Value": "3.72 µM"
  },
  {
    "Compound Structure String": "ONCCCn1cnc2c(NC3CC3)ncnc21",
    "Data Value": "> 100 µM"
  },
  {
    "Compound Structure String": "O=c1c2ccccc2n2c(-c3ccc(O)cc3)nnc2n1-c1ccccc1",
    "Data Value": "32.4 µM"
  }
]

----------
system: MOLT-4 leukemia; test: NCI tumour cell line growth inhibition, 48 h
Assay Metric: TGI

[
  {
    "Molecule": "CC(=O)N1CCC(Nc2ncc3cc(Oc4ccc(F)cc4F)c(=O)n(C)c3n2)CC1",
    "Target Or System": "MOLT-4 leukemia",
    "Assay Metric": "TGI",
    "Data Value": "> 25 µM"
  },
  {
    "Molecule": "Cc1[nH]n(-c2ncc(C(=O)O)c(=O)[nH]2)c(=O)c1CCO",
    "Target Or System": "MOLT-4 leukemia",
    "Assay Metric": "TGI",
    "Data Value": "> 100 µM"
  },
  {
    "Molecule": "COc1ccc(/C(Cl)=C(\\CN(C)C)c2ccc(OC)c(OC)c2)cc1OC",
    "Target Or System": "MOLT-4 leukemia",
    "Assay Metric": "TGI",
    "Data Value": "> 100 µM"
  },
  {
    "Molecule": "N#CC1CCCC2SC(F)(F)C(F)(F)C12 (stereo not given)",
    "Target Or System": "MOLT-4 leukemia",
    "Assay Metric": "TGI",
    "Data Value": "99.3 µM"
  },
  {
    "Molecule": "Cc1ccc(NC(=O)CC(=O)N2N=C(N(C)c3ccccc3)CC2c2ccccc2)cc1 (stereo not given)",
    "Target Or System": "MOLT-4 leukemia",
    "Assay Metric": "TGI",
    "Data Value": "> 100 µM"
  },
  {
    "Molecule": "O=C(Nc1nnc(-c2ccc(Cl)cc2)o1)C(SC(=S)N1CCCCC1)c1ccccc1 (stereo not given)",
    "Target Or System": "MOLT-4 leukemia",
    "Assay Metric": "TGI",
    "Data Value": "12.3 µM"
  },
  {
    "Molecule": "Cc1ccc(CN(C)c2ccc(CO)c(Cl)c2)cc1",
    "Target Or System": "MOLT-4 leukemia",
    "Assay Metric": "TGI",
    "Data Value": "> 79.7 µM"
  },
  {
    "Molecule": "CCOC(=O)N1CCN(P(=O)(Nc2ccc3nc(NC(=O)OC)[nH]c3c2)Oc2ccccc2)CC1 (stereo not given)",
    "Target Or System": "MOLT-4 leukemia",
    "Assay Metric": "TGI",
    "Data Value": "> 100 µM"
  },
  {
    "Molecule": "C=C(C)c1cc(C(C)(C)C)cc(C(=C)C)c1S(C)(=O)=O",
    "Target Or System": "MOLT-4 leukemia",
    "Assay Metric": "TGI",
    "Data Value": "> 100 µM"
  },
  {
    "Molecule": "COc1ccc(-c2cc(=O)c3c(O)cc(O)cc3o2)cc1OC",
    "Target Or System": "MOLT-4 leukemia",
    "Assay Metric": "TGI",
    "Data Value": "> 100 µM"
  },
  {
    "Molecule": "CC(=O)OCC(OC(C)=O)C(OC(C)=O)C(OC(C)=O)C(=O)CNn1c(-c2ccc(C)cc2)nc2ccccc2c1=O (stereo not given)",
    "Target Or System": "MOLT-4 leukemia",
    "Assay Metric": "TGI",
    "Data Value": "> 100 µM"
  },
  {
    "Molecule": "c1ccc(CC(Cc2ccccc2)C2=NCCCN2)cc1",
    "Target Or System": "MOLT-4 leukemia",
    "Assay Metric": "TGI",
    "Data Value": "23.2 µM"
  },
  {
    "Molecule": "N#CC(C#N)=C1NN=C(Cl)c2ccccc21",
    "Target Or System": "MOLT-4 leukemia",
    "Assay Metric": "TGI",
    "Data Value": "> 100 µM"
  },
  {
    "Molecule": "CCn1c2ccccc2c2cc(N=Nc3ccc(C#N)cc3)ccc21",
    "Target Or System": "MOLT-4 leukemia",
    "Assay Metric": "TGI",
    "Data Value": "> 100 µM"
  },
  {
    "Molecule": "CSc1cc(-c2cc3ccccc3o2)oc(=O)c1C#N",
    "Target Or System": "MOLT-4 leukemia",
    "Assay Metric": "TGI",
    "Data Value": "> 100 µM"
  },
  {
    "Molecule": "Cc1cccc(C)c1NC(=O)C(=O)C(C#N)c1ccccc1 (stereo not given)",
    "Target Or System": "MOLT-4 leukemia",
    "Assay Metric": "TGI",
    "Data Value": "> 100 µM"
  },
  {
    "Molecule": "S=c1[nH]nc(-c2ccccc2)n1/N=C\\c1ccc(-c2ccc(Cl)cc2)o1",
    "Target Or System": "MOLT-4 leukemia",
    "Assay Metric": "TGI",
    "Data Value": "> 100 µM"
  },
  {
    "Molecule": "CN(C)CC1CC/C(=C\\c2ccc(Cl)cc2)C1=O (stereo not given)",
    "Target Or System": "MOLT-4 leukemia",
    "Assay Metric": "TGI",
    "Data Value": "2.75 µM"
  },
  {
    "Molecule": "Fc1cccc(C2SCC3=Nc4ccccc4CN32)c1 (stereo not given)",
    "Target Or System": "MOLT-4 leukemia",
    "Assay Metric": "TGI",
    "Data Value": "> 100 µM"
  },
  {
    "Molecule": "CC1=C(C(=O)CC(=O)C(=O)Nc2ccc(Cl)cc2C)Sc2ccccc2N1",
    "Target Or System": "MOLT-4 leukemia",
    "Assay Metric": "TGI",
    "Data Value": "> 77.1 µM"
  },
  {
    "Molecule": "Nn1c(SCC(=O)O)nc2ccccc2c1=O",
    "Target Or System": "MOLT-4 leukemia",
    "Assay Metric": "TGI",
    "Data Value": "> 100 µM"
  },
  {
    "Molecule": "O=c1oc2ccc(Cl)cc2c2ccccc12",
    "Target Or System": "MOLT-4 leukemia",
    "Assay Metric": "TGI",
    "Data Value": "> 100 µM"
  },
  {
    "Molecule": "COc1cc(C2CC(c3cccc(Nc4ccncc4)c3)=NN2c2ccccc2)cc(OC)c1OC (stereo not given)",
    "Target Or System": "MOLT-4 leukemia",
    "Assay Metric": "TGI",
    "Data Value": "4.7 µM"
  },
  {
    "Molecule": "O=C(CN(/C=C/C(=O)C(F)(F)F)c1ccc(Cl)cc1)c1ccc(F)cc1",
    "Target Or System": "MOLT-4 leukemia",
    "Assay Metric": "TGI",
    "Data Value": "28.4 µM"
  },
  {
    "Molecule": "CC(=O)OCC1OC(Nc2ccc3nc(C)n(-c4ccccc4)c(=O)c3c2)C(OC(C)=O)C(OC(C)=O)C1OC(C)=O (stereo not given)",
    "Target Or System": "MOLT-4 leukemia",
    "Assay Metric": "TGI",
    "Data Value": "> 50 µM"
  },
  {
    "Molecule": "COc1cc(/C=C/C(=O)c2ccccc2)cc(OC)c1OC",
    "Target Or System": "MOLT-4 leukemia",
    "Assay Metric": "TGI",
    "Data Value": "8.13 µM"
  },
  {
    "Molecule": "Cc1cc(=O)[nH]c(S(=O)(=O)NC(=S)Nc2ccc(Cl)cc2)n1",
    "Target Or System": "MOLT-4 leukemia",
    "Assay Metric": "TGI",
    "Data Value": "> 100 µM"
  },
  {
    "Molecule": "CCOc1ccc(NC(=O)/C(=C\\c2ccc(C)cc2)C(C)=O)cc1",
    "Target Or System": "MOLT-4 leukemia",
    "Assay Metric": "TGI",
    "Data Value": "> 100 µM"
  },
  {
    "Molecule": "O=C1C2c3[nH]c4ccccc4c3C3CCCCC3C2C(=O)N1c1ccccc1 (stereo not given)",
    "Target Or System": "MOLT-4 leukemia",
    "Assay Metric": "TGI",
    "Data Value": "> 100 µM"
  },
  {
    "Molecule": "CC(=O)Nc1ccc(-c2nnc(SCC(=O)Nc3ccccc3)o2)cc1",
    "Target Or System": "MOLT-4 leukemia",
    "Assay Metric": "TGI",
    "Data Value": "> 100 µM"
  }
]
